test system: native c-MYC quadruplex (Pu27); assay: ITC of peptides with native c-MYC quadruplex Pu27 in potassium phosphate buffer; type: binding, human; conditions: 25°C, 20 μM peptide in cell, 500 μM Pu27 in syringe, 10 mM potassium phosphate, 0.1 M KCl, pH 7.0, one-site model
Decide using ΔG (binding energy) alone. Strictly below -6 kcal/mol: 1 (yes). Equal to or above -6 kcal/mol: 0 (no).

[ask] Regarding N – KRIVQRIKKWLR – C [KR12A, dodecameric mutant peptide derived from FK13 / LL37] , kindly confirm whether its ΔG (binding energy) is beneath -6 kcal/mol.
[reply] 1 (yes)

[ask] Regarding N – KRIVKLIKKWLR – C [KR12C] , kindly confirm whether its ΔG (binding energy) is beneath -6 kcal/mol.
[reply] 1 (yes)

[ask] Regarding N – KRIVKVIKKWLR – C [KR12D, dodecameric mutant peptide derived from FK13 / LL37] , kindly confirm whether its ΔG (binding energy) is beneath -6 kcal/mol.
[reply] 0 (no)
